Entries and their self-splicing fitness (ln)
- Assay Name: self-splicing fitness, log relative to wild type (ln ratio); higher = more splicing; Tetrahymena group I intron in knt gene, E. coli kanamycin selection, DiMSum; sequences stand for … in CUCUCU…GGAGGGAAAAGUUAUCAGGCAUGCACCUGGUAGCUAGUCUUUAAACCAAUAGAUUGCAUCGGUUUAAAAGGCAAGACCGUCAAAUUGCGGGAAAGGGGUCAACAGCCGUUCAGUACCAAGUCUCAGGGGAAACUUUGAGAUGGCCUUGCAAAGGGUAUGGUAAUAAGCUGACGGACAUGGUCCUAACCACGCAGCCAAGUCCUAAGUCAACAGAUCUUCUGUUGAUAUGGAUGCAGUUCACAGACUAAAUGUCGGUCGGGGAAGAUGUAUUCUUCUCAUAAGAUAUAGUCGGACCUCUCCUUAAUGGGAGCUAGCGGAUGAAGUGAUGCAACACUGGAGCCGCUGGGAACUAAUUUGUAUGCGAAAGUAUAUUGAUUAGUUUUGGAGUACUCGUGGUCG;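 further: selection with 25 µg/mL kanamycin versus none on LB agar overnight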
- Condition Context: 30 °C
Answer field: number only, no words.

Reference set, count: 8
[[record]]
sequence_input = "ACGUAGCAAUAUUACGAAUA"
recorded_metric = "self-splicing fitness (ln)"
reading = -2.32

[[record]]
sequence_input = "GGAAAGCAAUAUUACGCCUG"
recorded_metric = "self-splicing fitness (ln)"
reading = -1.73

[[record]]
sequence_input = "UCCAAGCAAUAUUACGUAUU"
recorded_metric = "self-splicing fitness (ln)"
reading = -3.44

[[record]]
sequence_input = "CUUAAGCAAUAUUACGCCCA"
recorded_metric = "self-splicing fitness (ln)"
reading = -2.46

[[record]]
sequence_input = "UGGCAGCAAUAUUACGAGAG"
recorded_metric = "self-splicing fitness (ln)"
reading = -2.95

[[record]]
sequence_input = "UACUAGCAAUAUUACGUUCA"
recorded_metric = "self-splicing fitness (ln)"
reading = -0.586

[[record]]
sequence_input = "GACGAGCAAUAUUACGUUUC"
recorded_metric = "self-splicing fitness (ln)"
reading = -2.64

[[record]]
sequence_input = "UCAAAGCAAUAUUACGAACC"
recorded_metric = "self-splicing fitness (ln)"
reading = -2.8


Task item: I have this sequence here, CAAGAGCAAUAUUACGAGGA , and I need its recorded self-splicing fitness (ln).
Reply: -3.17

Task item: I have this sequence here, ACAUAGCAAUAUUACGACCG , and I need its recorded self-splicing fitness (ln).
Reply: -0.782

Task item: I have this sequence here, UCCCAGCAAUAUUACGUGGU , and I need its recorded self-splicing fitness (ln).
Reply: -1.53

Task item: I have this sequence here, AGCGAGCAAUAUUACGUCUG , and I need its recorded self-splicing fitness (ln).
Reply: -2.03

Task item: I have this sequence here, CUGCAGCAAUAUUACGAUUU , and I need its recorded self-splicing fitness (ln).
Reply: -4.06

Task item: I have this sequence here, AAUUAGCAAUAUUACGUGCG , and I need its recorded self-splicing fitness (ln).
Reply: -0.879

Task item: I have this sequence here, CAUGAGCAAUAUUACGUACU , and I need its recorded self-splicing fitness (ln).
Reply: -3.25

Task item: I have this sequence here, ACGGAGCAAUAUUACGUGAA , and I need its recorded self-splicing fitness (ln).
Reply: -2.95

Task item: I have this sequence here, AUGAAGCAAUAUUACGAAUA , and I need its recorded self-splicing fitness (ln).
Reply: -1.17

Task item: I have this sequence here, CUAUAGCAAUAUUACGUCCU , and I need its recorded self-splicing fitness (ln).
Reply: -3.39

Task item: I have this sequence here, GUAUAGCAAUAUUACGGAUU , and I need its recorded self-splicing fitness (ln).
Reply: -2.58

Task item: I have this sequence here, GGUUAGCAAUAUUACGCAAG , and I need its recorded self-splicing fitness (ln).
Reply: -2.45

Task item: I have this sequence here, AGAGAGCAAUAUUACGAGCG , and I need its recorded self-splicing fitness (ln).
Reply: -2.63

Task item: I have this sequence here, CAACAGCAAUAUUACGGCUA , and I need its recorded self-splicing fitness (ln).
Reply: -1.28

Task item: I have this sequence here, UCCAAGCAAUAUUACGAGUU , and I need its recorded self-splicing fitness (ln).
Reply: -3.75

Task item: I have this sequence here, UUCCAGCAAUAUUACGGCUG , and I need its recorded self-splicing fitness (ln).
Reply: -3.09

Task item: I have this sequence here, CUGAAGCAAUAUUACGCUAG , and I need its recorded self-splicing fitness (ln).
Reply: -1.1

Task item: I have this sequence here, AACAAGCAAUAUUACGGGUA , and I need its recorded self-splicing fitness (ln).
Reply: -0.841

Task item: I have this sequence here, AGAUAGCAAUAUUACGAGGU , and I need its recorded self-splicing fitness (ln).
Reply: -2.94

Task item: I have this sequence here, ACGCAGCAAUAUUACGGAGA , and I need its recorded self-splicing fitness (ln).
Reply: -2.66

Task item: I have this sequence here, CUGAAGCAAUAUUACGACGU , and I need its recorded self-splicing fitness (ln).
Reply: -2.75

Task item: I have this sequence here, AUUAAGCAAUAUUACGCGGU , and I need its recorded self-splicing fitness (ln).
Reply: -3.93

Task item: I have this sequence here, UUGAAGCAAUAUUACGCGCU , and I need its recorded self-splicing fitness (ln).
Reply: -1.72

Task item: I have this sequence here, GAGGAGCAAUAUUACGCCCA , and I need its recorded self-splicing fitness (ln).
Reply: 0.0821

Task item: I have this sequence here, CAGGAGCAAUAUUACGAAGG , and I need its recorded self-splicing fitness (ln).
Reply: -1.43

Task item: I have this sequence here, GAUCAGCAAUAUUACGCGUG , and I need its recorded self-splicing fitness (ln).
Reply: -0.471

Task item: I have this sequence here, UUUCAGCAAUAUUACGUCUG , and I need its recorded self-splicing fitness (ln).
Reply: -3.65

Task item: I have this sequence here, UUCUAGCAAUAUUACGUCGU , and I need its recorded self-splicing fitness (ln).
Reply: -3.47
